From: PubChem BioAssay (NCATS)

Experiment: Cellular viability qHTS for adrenocortical cancer (ACC) cell line NCI-H295R (AID 1963990); also: nearly all actives have a fitted effect of over 60% in size
Conditions: CellTiter-Glo ATP luminescence, 48 h; series mostly up to 46.1 µM
Records with an inconclusive call do not appear. Active and inactive are the calls of the source. Calls follow the shape of the dose curve; as a rule, active = well fitted cell-killing curve with a large enough effect; inconclusive = small, poorly fitted or top-dose-only effect; inactive = flat fitted curve, though single readings scatter.
Outcomes: label 1 = active, label 0 = inactive

1. CC(=O)Nc1ccc(S(=O)(=O)Nc2ccc([N+](=O)[O-])cc2)cc1 :: label 0
2. CCCCC1(COC(=O)CCC(=O)O)C(=O)N(c2ccccc2)N(c2ccccc2)C1=O :: label 0
3. CCN(CC)CCNc1ccc(CO)c2sc3ccccc3c(=O)c12 :: label 1
4. Cc1ccnc(NS(=O)(=O)c2ccc(NC(=O)Nc3ccc(S(=O)(=O)Nc4nccc(C)n4)cc3)cc2)n1 :: label 0
5. O=C(NCCc1c[nH]c2ccccc12)c1cccnc1 :: label 0
6. O=P(O)(O)C(O)(Cc1cccnc1)P(=O)(O)O :: label 0
7. O=C1OC(OC(=O)c2cccnc2Nc2cccc(C(F)(F)F)c2)c2ccccc21 (stereo not drawn) :: label 0
8. O=C1Cc2cc(C(=O)NC3C[C@H]4CC[C@@H](C3)N4S(=O)(=O)CC3CCN(CCCC(F)(F)F)CC3)c(Cl)cc2N1 (stereo partly drawn) :: label 0
9. O=C(O)CSCC(=O)NC1CCSC1=O (stereo not drawn) :: label 0
10. CC(C)NNC(=O)c1ccncc1 :: label 0
11. Cn1c(=O)c(Oc2ccc(F)cc2F)cc2cnc(NC3CCOCC3)nc21 :: label 0
12. Cc1cc(C)c(NC(=O)CN(CC(=O)O)CC(=O)O)c(C)c1Br :: label 0
13. COc1ccc(Cl)cc1C(=O)NCCc1ccc(S(=O)(=O)NC(=O)NC2CCCCC2)cc1 :: label 0
14. O=C1OC2(CCC(C(=O)Nc3ccn(-c4ccccc4F)n3)CC2)c2cnccc21 (stereo not drawn) :: label 0
15. CO[C@H]1C=CO[C@@]2(C)Oc3c(C)c(O)c4c(O)c(c(/C=N/N5CCN(C)CC5)c(O)c4c3C2=O)NC(=O)/C(C)=C\C=C[C@H](C)[C@H](O)[C@@H](C)[C@@H](O)[C@@H](C)[C@H](OC(C)=O)[C@@H]1C :: label 0
16. CN1CCCN(C(c2ccccc2)c2ccc(Cl)cc2)CC1 (stereo not drawn) :: label 1
17. CC(C)n1c(=O)cc(N[C@@H](C)c2ccccc2)[nH]c1=O :: label 0
18. CC(C)c1cnn2c(NCc3ccccc3)cc(NCCCCCCN)nc12 :: label 1
19. O=C(O)CCCCN(CCc1ccccc1OCc1ccc(CCc2ccccc2)cc1)Cc1ccc(C(=O)O)cc1 :: label 0
20. CC(C)NCC(O)COc1ccc(COCCOC(C)C)cc1 (stereo not drawn) :: label 0
21. O=C(Nc1cccnc1)c1cc(-c2ccnc(F)c2)ccc1OCc1ccccc1 :: label 0
22. CO[C@H]1C[C@@H]2CC[C@@H](C)[C@@](O)(O2)C(=O)C(=O)N2CCCC[C@@H]2C(=O)O[C@H]([C@@H](C)C[C@@H]2CC[C@H](O)[C@H](OC)C2)CC(=O)[C@H](C)C=C(C)[C@@H](O)[C@@H](OC)C(=O)[C@H](C)C[C@H](C)C=CC=CC=C1C :: label 1
23. CN(C)Cc1c(C(=O)NCCOc2ccc(C(=O)NO)cc2)oc2ccccc12 :: label 1
24. NC[C@H]1O[C@H](O[C@@H]2[C@@H](O)[C@@H](O[C@H]3O[C@H](CO)[C@@H](O)[C@H](N)[C@@H]3O)[C@H](N)C[C@@H]2N)[C@H](O)[C@@H](O)[C@H]1O :: label 0
25. CCCc1cc(=O)[nH]c(=S)[nH]1 :: label 0
26. O=c1cc[nH]c(=O)[nH]1 :: label 0
27. CC(C)(NS(=O)(=O)c1ccc2c(Cl)cnc(N=C(N)N)c2c1)C(=O)O :: label 0
28. CCOC(=O)NNc1ccc(N(CC)CC(C)O)nn1 (stereo not drawn) :: label 0
29. C[n+]1c2cc(N)ccc2cc2ccc(N)cc21 (tested in a mixture with another compound) :: label 1
30. O=C(Nc1cnn2ccc(N3CCC[C@@H]3c3cc(F)ccc3F)nc12)N1CC[C@H](O)C1 :: label 0
31. C[C@]12C=CC(=O)C=C1[C@@H](F)C[C@@H]1[C@@H]2[C@@H](O)C[C@@]2(C)[C@H]1CC[C@]2(O)C(=O)CO :: label 0
32. CC(C)(C)CC(C)(C)c1ccc(O)c(-n2nc3ccccc3n2)c1 :: label 0
33. Clc1ccccc1C(c1ccccc1)(c1ccccc1)n1ccnc1 :: label 1
34. CC[C@H](NC(=O)[C@H](CS(=O)(=O)CC1CC1)N[C@@H](c1ccc(F)cc1)C(F)(F)F)C(=O)C(=O)NC1CC1 :: label 0
35. Cc1cc(O)c(C)c(C)c1O :: label 0
36. CC(C)[C@H](O)C(=O)N[C@@H](C)C(=O)N[C@@H]1C(=O)N(C)CCc2ccccc21 :: label 0
37. Nc1cccc(-c2cc3c(Oc4cccc(O)c4)ncnc3[nH]2)c1 :: label 1
38. O=c1oc2c(O)c(O)cc3c(=O)oc4c(O)c(O)cc1c4c23 :: label 0
